Measured pIC50, listed per entry for reference.
- target-of-assay: Recombinant human TPH1 (MBP tagged) (Homo sapiens, UniProt P17752)
- Construct: cloning full length human TPH1 cDNA in to a bacterial pMAL-c5E expression vector; made in house; host or cells: E. coli BL21 (DE3)
- Sequence (P17752 whole entry): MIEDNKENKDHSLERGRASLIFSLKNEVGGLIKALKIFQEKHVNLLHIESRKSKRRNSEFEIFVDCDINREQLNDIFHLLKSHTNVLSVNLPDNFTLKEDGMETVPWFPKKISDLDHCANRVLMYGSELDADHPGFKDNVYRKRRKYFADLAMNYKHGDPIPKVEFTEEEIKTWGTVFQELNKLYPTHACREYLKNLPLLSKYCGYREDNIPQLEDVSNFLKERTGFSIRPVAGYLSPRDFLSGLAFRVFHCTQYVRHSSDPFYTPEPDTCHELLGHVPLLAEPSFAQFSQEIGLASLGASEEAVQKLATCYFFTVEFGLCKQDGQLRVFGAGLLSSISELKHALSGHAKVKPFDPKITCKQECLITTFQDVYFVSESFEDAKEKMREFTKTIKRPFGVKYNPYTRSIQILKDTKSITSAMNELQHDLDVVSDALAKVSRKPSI
- measurement-protocol: TPH1 in vitro inhibition assay (kinetic fluorescence)
- Type: biochemical
- measurement-parameters: read-out: TPH1 Range (TPH1 inhibition IC50)
pIC50: −log10 of the molar value.

Example cases with answers are listed next.
[
  {
    "compound": "Cc1cc(C)c(-c2ccc([C@@H](Oc3cc(N4CCC5(CC4)CN[C@H](C(=O)O)C5)nc(C)n3)C(F)(F)F)c(-n3ccc(C)n3)c2)c(C)c1 [Example 29n]",
    "assay-readout": "pIC50",
    "observed": "6.52 to 7.30"
  },
  {
    "compound": "CCOc1ccc(-c2ccc([C@@H](Oc3cc(N4CCC5(CC4)CN[C@H](C(=O)O)C5)nc(N)n3)C(F)(F)F)cc2)cc1 [Example 55do]",
    "assay-readout": "pIC50",
    "observed": "> 7.30"
  }
]

--- query ---
Lab note: Cc1ccn(-c2cc(-c3ccc([S+](C)[O-])cc3)ccc2[C@@H](Oc2cc(N3CCC4(CC3)CN[C@H](C(=O)O)C4)nc(N)n2)C(F)(F)F)n1 (stereo partly drawn) gave pIC50 of > 7.30

---

- target-of-assay: Recombinant human TPH1 (MBP tagged) (Homo sapiens, UniProt P17752)
- Construct: cloning full length human TPH1 cDNA in to a bacterial pMAL-c5E expression vector; made in house; host or cells: E. coli BL21 (DE3)
- measurement-protocol: TPH1 in vitro inhibition assay (kinetic fluorescence)
- Assay type: biochemical
- measurement-parameters: read-out: TPH1 Range (TPH1 inhibition IC50)
assay-readout: IC50

[
  {
    "compound": "COc1ccc(-c2ccc([C@@H](Oc3cc(N4CCC5(CC4)CN[C@H](C(=O)O)C5)nc(C)n3)C(F)(F)F)c(-n3ccc(C)n3)c2)cn1 [Example 29f]",
    "IC50": "< 50 nM"
  },
  {
    "compound": "COCCOc1cccc(-c2cc(Cl)ccc2[C@@H](Oc2cc(N3CCC4(CC3)CN[C@H](C(=O)O)C4)nc(N)n2)C(F)(F)F)c1 [Example 34cv]",
    "IC50": "< 50 nM"
  },
  {
    "compound": "CS(=O)(=O)c1ccc([C@@H](Oc2cc(N3CCC4(CC3)CN[C@H](C(=O)O)C4)nc(N)n2)C(F)(F)F)c(-c2ccccc2)c1 [Example 54d]",
    "IC50": "50 to 300 nM"
  },
  {
    "compound": "Nc1nc(O[C@H](c2ccc(Cl)cc2-n2ncc3ccccc32)C(F)(F)F)cc(N2CCC3(CC2)CN[C@H](C(=O)O)C3)n1 [Example 36c]",
    "IC50": "< 50 nM"
  },
  {
    "compound": "Cc1ccn(-c2cc(C(N)=O)ccc2[C@@H](Oc2cc(N3CCC4(CC3)CN[C@H](C(=O)O)C4)nc(N)n2)C(F)(F)F)n1 [Example 15]",
    "IC50": "50 to 300 nM"
  }
]

Entry CS(=O)(=O)c1ccc(-c2ccc([C@@H](Oc3cc(N4CCC5(CC4)CN[C@H](C(=O)O)C5)nc(N)n3)C(F)(F)F)cc2)cc1 [Example 55di] , tested on Recombinant human TPH1 (MBP tagged) (Homo sapiens, UniProt P17752), has a reported IC50 of 50 to 300 nM

Entry Cc1ccc([C@@H](Oc2cc(N3CCC4(CC3)CN[C@H](C(=O)O)C4)nc(N)n2)C(F)(F)F)c(-n2ccc(C)n2)n1 [Example 11] , tested on Recombinant human TPH1 (MBP tagged) (Homo sapiens, UniProt P17752), has a reported IC50 of 50 to 300 nM
